# Protocol text: qHTS profiling for inhibitors of Plasmodium falciparum (HB3) proliferation (AID 743324);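 also: 100% = DMSO vehicle wells and 0% = artemisinin-treated control wells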
# Run conditions: Plasmodium falciparum HB3 blood-stage proliferation; at 28.7 µM (top of the series)
Measurement name: remaining proliferation (% of control), lower = more inhibition (%)
One number for each entry, in %.

Enquiry: What value of remaining proliferation (% of control), lower = more inhibition has been reported for the following compound? "CC(C)[C@H](CO)Nc1nc(Nc2ccc(C(=O)O)c(Cl)c2)c2ncn(C(C)C)c2n1"
Return: 28.6

Batch request: remaining proliferation (% of control), lower = more inhibition per item, same order as input.
1. CN(C)Cc1ccc(-c2nc3cccc4c3n2CCNC4=O)cc1
2. OC[C@H]1O[C@@H](n2cnc3c2NC=NC[C@@H]3O)C[C@H]1O
3. CS(=O)c1ccc(-c2nc(-c3ccc(F)cc3)c(-c3ccncc3)[nH]2)cc1 (centres undefined)
4. CC1=C(/C=C/C(C)=C/C=C/C(C)=C/C(=O)Nc2ccc(O)cc2)C(C)(C)CCC1

Return:
[94, 99.7, 20.3, -0.513]

---

# Target entity: N-terminal Xaa-Pro-Lys N-methyltransferase 1 (Homo sapiens) (UniProt Q9BV86)
# Sequence (Q9BV86 whole entry, looked up): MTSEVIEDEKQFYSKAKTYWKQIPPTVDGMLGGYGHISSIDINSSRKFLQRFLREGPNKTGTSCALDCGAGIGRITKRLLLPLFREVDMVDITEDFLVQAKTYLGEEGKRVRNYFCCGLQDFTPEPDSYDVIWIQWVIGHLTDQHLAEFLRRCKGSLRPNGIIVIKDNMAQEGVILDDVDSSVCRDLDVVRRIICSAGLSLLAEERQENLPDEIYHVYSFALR
# Protocol text: qHTS Assay for Inhibitors of N-terminal methyltransferase 1 (NTMT1): LOPAC validation of the NTMT1 SAHH-coupled ThioGlo3 Assay (AID 1347143);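 also: SAH from peptide methylation measured as thiol fluorescence via SAHH coupling and ThioGlo3; nearly all actives have a fitted effect of over 70% in size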
# Run conditions: recombinant NTMT1, SAHH-coupled ThioGlo3 fluorescence; series mostly up to 114 µM
Inconclusive results are not listed. Calls of active or inactive are those of the source. The call rests on the fitted dose curve; in most records, active means well fitted inhibition curve with a large enough effect; inconclusive means small, poorly fitted or top-dose-only effect; inactive means no such curve, though single readings can be large or run the other way.
Response enum: active, inactive

Please review the entries below; each comes with its answer.
Enquiry: # fetch the recorded call for "O=C1NC(=O)C(c2ccccc2)(c2ccccc2)N1" here
Return: inactive

Enquiry: Per the records of this test, what outcome belongs to "CCN(CC)CCNC(=O)c1ccc(N)cc1" ?
Return: inactive

Enquiry: GET /call?item= "CCCCC1C(=O)N(c2ccccc2)N(c2ccccc2)C1=O" returns the recorded outcome of this test.
Return: inactive

Enquiry: Test call for this compound, please: "O=c1c(-c2ccc(O)cc2)coc2cc(O)ccc12"
Return: active

Enquiry: Identify the outcome logged in this assay for the compound shown: Cc1cccc(C)c1OCC(C)N (stereo unspecified)
Return: inactive

Enquiry: What did this assay record as the result for "CCN(CC)CCOC(=O)c1ccc(N)cc1" ?
Return: inactive

Enquiry: What classification did "CC(=O)O[C@]1(C(C)=O)CC[C@H]2[C@@H]3C=C(Cl)C4=CC(=O)[C@@H]5C[C@@H]5[C@]4(C)[C@H]3CC[C@@]21C" end up with in this test?
Return: inactive

Enquiry: Assay result, entry CC(C)(C)c1ccc(C(O)CCCN2CCC(C(O)(c3ccccc3)c3ccccc3)CC2)cc1 (stereo unspecified) — outcome?
Return: inactive

Enquiry: Look up the recorded call for "CC(=O)N[C@@H](CS)C(=O)O" in this test.
Return: inactive

Enquiry: What did the test return for "O=C1NCC2(CCN(CCc3ccccc3)CC2)O1" ?
Return: inactive

With those in mind, consider the next compound.
Enquiry: Check the results log: what was the call for "COC(=O)[C@@H]1[C@H]2C[C@H]3c4[nH]c5ccccc5c4CCN3C[C@@H]2CC[C@@H]1O" ?
Return: active

---

# System: PA-1
# Protocol text: Primary qHTS to identify gynecologic anti-cancer compounds using libraries of approved drugs and bioactive compounds (AID 1345084); also: % is scaled to controls: 0 for no effect and ±100 for the full control effect; nearly all actives have a fitted effect of over 55% in size
# Run conditions: Gynecologic cancer cell panel viability, ATPlite luminescence, 48 h; series mostly up to 57.5 µM
Records with an inconclusive call do not appear. Activity calls are given as the source filed them. Calls come from the whole dose curve; as a rule, active = well fitted cell-killing curve with a large enough effect; inconclusive = small, poorly fitted or top-dose-only effect, or effect the other way; inactive = flat fitted curve, though single readings scatter.
Measurement name: outcome

Worked cases, outcome given:
Enquiry: # lookup: outcome of CC(=O)Oc1cc2c(s1)CCN(C(C(=O)C1CC1)c1ccccc1F)C2 (stereo unspecified)
Return: inactive

Enquiry: # get_value(readout='outcome', item= "NC(=O)c1cccc(-c2cc(Nc3ccc(OC(F)(F)F)cc3)ncn2)c1" )
Return: inactive

Enquiry: May I ask what outcome has been recorded for "CCN(CC)CCOC(=O)c1ccc(N)cc1" ?
Return: inactive

Enquiry: Tell me the measured outcome of "O=C(O)CCc1nc(-c2ccccc2)c(-c2ccccc2)o1" , please.
Return: inactive

Enquiry: Look up outcome: "CC(=O)N[C@@H](CS)C(=O)O"
Return: inactive

Please look at the following compound next.
Enquiry: Quick one: outcome of CC(C)(C)c1ccc(C(O)CCCN2CCC(C(O)(c3ccccc3)c3ccccc3)CC2)cc1 (stereo unspecified) ?
Return: inactive

---

# Protocol text: Quantitative High-Throughput drug screen in 47 multiple myeloma cell lines against the NCATS MIPE library collection: L363_DSMZ cell viability assay (AID 1918984); also: nearly all actives have a fitted effect of over 40% in size
# Run conditions: L363 myeloma viability, CellTiter-Glo ATP luminescence, 48 h; series mostly up to 45.8 µM
Records with an inconclusive call do not appear. Calls of active or inactive are those of the source. Calls come from the whole dose curve; as a rule, active = well fitted cell-killing curve with a large enough effect; inconclusive = small, poorly fitted or top-dose-only effect, or effect the other way; inactive = no such curve, though single readings can be large or run the other way.
Outcomes you can answer with include only these: active, inactive

Here are 2 compounds together with their reported answers.
Enquiry: Recorded call for "CCc1ccc(OCc2ccccc2C(=O)Nc2ccc3nc(C)cc(N)c3c2)cc1" ?
Return: active

Enquiry: For this compound, state the assay outcome: "N#CC1(c2ccc(NC(=O)c3cccnc3NCc3ccncc3)cc2)CCCC1"
Return: inactive

Next:
Enquiry: Lab log entry: "O=c1cc(-c2ccccc2)oc2cc(O)cc(O)c12" — outcome as called in the assay?
Return: active

Enquiry: Check the results log: what was the call for "O=C(OCC#CCSc1nnc(-c2cccc3ccccc23)o1)c1cc2ccccc2s1" ?
Return: inactive

Enquiry: Record lookup: outcome of this test for "Cc1cccc(Nc2nc(-c3ccncc3)cs2)c1" ?
Return: active

Enquiry: Could you check what this test reported for O=C(O)CCC1CCC(c2cc(F)ccc2F)(S(=O)(=O)c2ccc(Cl)cc2)CC1 (centres undefined) ?
Return: active

---

# Protocol text: Cell Viability - LYMP1-002 - Assay at 40 hr (AID 994);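 also: 0% = DMSO only and full inhibition = 92 µM tetraoctylammonium bromide; nearly all actives have a fitted effect of over 60% in size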
# Run conditions: LYMP1-002 lymphoblastoid cell viability; series mostly up to 92.2 µM
# Text: NIH Chemical Genomics Center [NCGC] NIH Molecular Libraries Screening Centers Network [MLSCN] National Institutes of Environmental Health Sciences [NIEHS] National Toxicology Program [NTP] We have developed a 1536-well cell-based assay for quantitative high throughput screening (qHTS) against a number of cell lines to determine in vitro cytotoxicity of small molecules. […] 8. Detection; Luminescence; Viewlux plate reader […]
Records with an inconclusive call do not appear. Active and inactive are the calls of the source. Calls come from the whole dose curve; as a rule, active = well fitted cell-killing curve with a large enough effect; inconclusive = small, poorly fitted or top-dose-only effect; inactive = flat fitted curve, though single readings scatter.
Outcomes you can answer with include only these: 1 (active), -1 (inactive)

For orientation, consider the following solved cases.
Enquiry: For this compound, state the assay outcome: "CCCNC(=O)NS(=O)(=O)c1ccc(Cl)cc1"
Return: -1

Enquiry: So what was the verdict on "O=C(O)c1cc(O)c2c(c1)C(=O)c1cccc(O)c1C2=O" in this test?
Return: -1

Enquiry: Write down the call the test reported for this compound. Item: "CCn1cc(C(=O)O)c(=O)c2ccc(C)nc21"
Return: -1

Next, consider the following compound.
Enquiry: Lab log entry: "O=c1c(O)c(-c2ccc(O)cc2)oc2cc(O)cc(O)c12" — outcome as called in the assay?
Return: -1

---

# System: W2
# Protocol text: qHTS profiling for inhibitors of Plasmodium falciparum proliferation (AID 504749); also: nearly all actives have a fitted effect of over 60% in size; also: potency is read from the fitted curve at half-maximal effect
# Run conditions: P. falciparum in erythrocytes, SYBR Green DNA, 72 h; series mostly up to 28.7 µM
Records with an inconclusive call do not appear. The source made the active and inactive calls. The call rests on the fitted dose curve; in most records, active means well fitted inhibition curve with a large enough effect; inconclusive means small, poorly fitted or top-dose-only effect; inactive means flat fitted curve, though single readings scatter.
Measurement name: Potency

Enquiry: Reported Potency for "NCCS" : what is it?
Return: inactive

Enquiry: # query: Potency of entry "CC1=C(/C=C/C(C)=C/C=C/C(C)=C/C(=O)Nc2ccc(O)cc2)C(C)(C)CCC1"
Return: 5.36 µM (active)

Enquiry: So what does the record say about Potency for "O=C(O)c1c(Cl)c(Cl)c(Cl)c(Cl)c1-c1c2cc(I)c(=O)c(I)c-2oc2c(I)c(O)c(I)cc12" ?
Return: inactive

Enquiry: Fill in: Potency of Cc1cccc(C)c1OCC(C)N (centres undefined) is ___
Return: 6.01 µM (active)

---

# Protocol text: Primary qHTS for inhibitors of nuclear receptor binding SET domain protein 2 (NSD2) in an isogenic RCH-ACV NSD2 p.E1099K mutant (9B) (AID 1645876); also: nearly all actives have a fitted effect of over 70% in size; also: potency is read from the fitted curve at half-maximal effect
# Run conditions: RCH-ACV (leukaemia line) NSD2 E1099K (9B) viability, CellTiter-Glo, 72 h; series mostly up to 44.9 µM
Records with an inconclusive call do not appear. Calls of active or inactive are those of the source. Calls follow the shape of the dose curve; as a rule, active = well fitted inhibition curve with a large enough effect; inconclusive = small, poorly fitted or top-dose-only effect; inactive = flat fitted curve, though single readings scatter.
Measurement name: Potency

Below, 5 compounds whose answers are already recorded.
Enquiry: What does the record list as Potency for CC(C)NCC(O)COc1cccc2[nH]ccc12 (stereo unspecified) ?
Return: inactive

Enquiry: Endpoint output: Potency of C=C1C(=O)OC(CCCCCCCC)C1C(=O)O (stereo unspecified) . Value?
Return: inactive

Enquiry: Value lookup for Potency; key = CCCCCNC(=O)N1CCC(CN(Cc2ccc(Cl)cc2)Cc2ccc([N+](=O)[O-])s2)C1 (stereo unspecified)
Return: inactive

Enquiry: Tell me the measured Potency of "CC(C)(Cc1ccc2ccccc2c1)NC[C@@H](O)COc1cccc(Cl)c1C#N" , please.
Return: 4.68 µM (active)

Enquiry: Given "Cc1cnc(C(=O)O)c[n+]1[O-]" , state its recorded Potency.
Return: inactive

Consider the record given below.
Enquiry: So what does the record say about Potency for "COCCOc1nc(-c2ccc(Cl)c(Cl)c2)n(-c2ccc(NC(=O)CCl)cc2)n1" ?
Return: 1.48 µM (active)
